Test system: corn
Assay: Test B pre/postemergence corn
Format: in vivo, Zea mays
Conditions: Postemergence, Rate 500 g/ha; scale of 0 to 10 where 0 is no effect and 10 is complete control
measure: Corn plant response rating

compound	obsValue
COC(=O)C(C)n1c(=O)on(C(=O)N(c2ccc(F)cc2F)C(C)C)c1=O (stereo not drawn) [Compound 463]	0
CC(C)N(C(=O)n1oc(=O)n(C(C)C2CC2)c1=O)c1ccc(F)cc1 (stereo not drawn) [Compound 404]	1
CC(C)N(C(=O)n1oc(=O)n(CCCl)c1=O)c1ccc(Cl)cc1 [Compound 474]	0
CC(C)N(C(=O)n1oc(=O)n(C(C)C(=O)N(C)C)c1=O)c1ccc(Cl)cc1 (stereo not drawn) [Compound 480]	2
CC(C)N(C(=O)n1oc(=O)n(C2CCCCCC2)c1=O)C1=CCCCC1 [Compound 428]	0
CC(C)N(C(=O)n1oc(=O)n(C(C)CCl)c1=O)c1ccc(F)cc1F (stereo not drawn) [Compound 408]	0

###

System: purple nutsedge
Assay: Test B pre/postemergence purple nutsedge
Type: in vivo, Cyperus rotundus
Conditions: Rate 125 g/ha; Preemergence; scale of 0 to 10 where 0 is no effect and 10 is complete control
measure: Nutsedge plant response rating

compoundStructureString	measure	obsValue
Cc1ccccc1-n1c(=O)on(C(=O)N(c2ccc(C(C)(C)C)cc2)C(C)C)c1=O	Nutsedge plant response rating	0
CC(C)N(C(=O)n1oc(=O)n(CC#C[Si](C)(C)C)c1=O)c1ccc(F)cc1	Nutsedge plant response rating	0
CCCCCC#CCn1c(=O)on(C(=O)N(c2ccc(F)cc2)C(C)C)c1=O	Nutsedge plant response rating	0
CC(C)=CCn1c(=O)on(C(=O)N(c2ccc(F)cc2)C(C)C)c1=O	Nutsedge plant response rating	0

###

Entries and their measured Sugarbeets plant response rating follow.
Tested on: sugar beet
Assay: Test B pre/postemergence sugar beet
Format: in vivo, Beta vulgaris
Conditions: Postemergence, Rate 125 g/ha; scale of 0 to 10 where 0 is no effect and 10 is complete control

compound	Sugarbeets plant response rating
CCc1noc(CC)c1-n1c(=O)on(C(=O)N(c2ccc(F)cc2)C(C)C)c1=O	0
C#CCn1c(=O)on(C(=O)N(c2ccc(F)cc2)C(C)C)c1=O	0
CCC(C)n1c(=O)on(C(=O)N(c2ccc(F)cc2)C(C)C)c1=O (stereo not drawn)	3
CCN(CC)C(=O)n1oc(=O)n(-c2cccc3c2CCCC3)c1=O	0
CCOP(=O)(OCC)C(C)n1c(=O)on(C(=O)N(c2ccc(Cl)cc2)C(C)C)c1=O (stereo not drawn)	0
CC(C)N(C(=O)n1oc(=O)n(CCCC#N)c1=O)c1ccc(F)cc1	2

###

Test system: duck salad
Experiment: Test B flood test duck salad
Type: in vivo, Heteranthera limosa
Settings: Rate 250 g/ha; Pre-emergence; flood-test species; scale 0 to 10, 0 is no effect, 10 is complete control

compound	Ducksalad plant response rating
CC(C)N(C(=O)n1oc(=O)n(C2CCCCCC2)c1=O)c1ccc(Cl)cc1 [Compound 339]	0
Cc1ccccc1-n1c(=O)on(C(=O)N(c2ccc(N(C)C)cc2)C(C)C)c1=O [Compound 237]	0
CCC(CC)N(C(=O)n1oc(=O)n(-c2ccccc2C)c1=O)c1ccc(F)cc1 [Compound 193]	0
CC(C)N(C(=O)n1oc(=O)n(C2CC2)c1=O)c1ccc(Cl)cc1 [Compound 241]	0
